B1: Triacylglycerol hydrolase DDHD2, residues 389 to 447; numbered along this chain, O94830 (parent)
chain: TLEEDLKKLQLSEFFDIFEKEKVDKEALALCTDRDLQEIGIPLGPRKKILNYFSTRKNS

Variants of: B1
ASSAY PROCEDURE: abundance fitness (aPCA) (normalised: wild type 0, dead -1); higher = more abundant; growth selection in yeast, the domain comes from the species named
TEST SETTINGS: Homo sapiens
abundance fitness class ranges: low: < -0.3; intermediate: ≥ -0.3 and < -0.1; high: ≥ -0.1

{"columns": ["CHAIN SEQUENCE", "CLASS"],
 "data": [
  ["TKEEDLKKLQLSEFFDIFEKEKVDKEALALCTDRDLQEIGIPLGPRKKILNYFSTRKNS [L2K]", "low"],
  ["TLEEDLKKLQLEEFFDIFEKEKVDKEALALCTDRDLQEIGIPLGPRKKILNYFSTRKNS [S12E]", "high"],
  ["TLEEDLKKLQLSEFFDIFEKEKVDKEALALCTDRDLQEIGIPLGPRKKILNMFSTRKNS [Y52M]", "intermediate"],
  ["TLEEDLKKLQLSEFFDIFEKEKVDKNALALCTDRDLQEIGIPLGPRKKILNYFSTRKNS [E26N]", "intermediate"],
  ["TLEEDLKKLQLSEFFDIFEKEKVDKEALALCTDRDLQEIGIPLGPRKKILNYFSTKKNS [R56K]", "intermediate"],
  ["TLEEDLKKLQLSEFFDIFEKEKVDKEALALCTDRDLQEIGIQLGPRKKILNYFSTRKNS [P42Q]", "low"]
]}

Band for the recorded abundance fitness of TLEEDLKKLQLSEFFDIFHKEKVDKEALALCTDRDLQEIGIPLGPRKKILNYFSTRKNS [E19H] ?
high

Could you place TLEEDLKKLQLSEFFDIFEKEFVDKEALALCTDRDLQEIGIPLGPRKKILNYFSTRKNS [K22F] in its proper category? Many thanks.
high

Category of TLEEDLKKLQLSEFFDIFEKEKVDKEALALCTDRDLQEIGIPLGPRKKILNYFSTRKNR [S59R] , please.
low

Tag the class for TLEEDLKKLQLSEFFDIFEKEKVDKEALALCTDRKLQEIGIPLGPRKKILNYFSTRKNS [D35K]
high

Band for TLEEDLKKLQLSEFFDIFEKEKVDKEALALCTDRDLTEIGIPLGPRKKILNYFSTRKNS [Q37T] ?
intermediate

GET /class?item= TLEEDLKKLQLSEFFDIFEKEKVDKEALALCTDRDLQEIGIPWGPRKKILNYFSTRKNS [L43W]
high

Hi there! Could you help me figure out the category for TLEEDLKKLHLSEFFDIFEKEKVDKEALALCTDRDLQEIGIPLGPRKKILNYFSTRKNS [Q10H] please?
intermediate

In plain terms, what class is TLEEDLKKLQLSEFFDIFEKEKVDKEAPALCTDRDLQEIGIPLGPRKKILNYFSTRKNS [L28P] ?
low
